Overview of recorded CC50 for various compounds
test system: HepG2.2.15 cells; test: Cytotoxicity determination in HepG2.2.15 cells (CCK-8); assay type: cell-based; settings: HepG2.2.15 cells, 5,000 cells/well, 6 days of compound treatment, CCK-8 absorbance 450 nm, highest concentration 100 uM
Express the result in µM but write the number alone.

[
  {
    "compound": "CCOC(=O)C1=C(C2CCc3nn(CC(C)(C)C(=O)O)cc3C2)NC(c2nccs2)=NC1c1ccc(F)c(F)c1Cl (single isomer, unassigned) [Compound 53c]",
    "measured_result": 10.9
  },
  {
    "compound": "CCOC(=O)C1=C(C2CCc3nn(CCC(=O)O)cc3C2)NC(c2nccs2)=NC1c1cccc(F)c1Cl (single isomer, unassigned) [Compound 40c]",
    "measured_result": 12.5
  },
  {
    "compound": "CCOC(=O)C1=C(C2CCc3nn(CC(C)(C)C(=O)O)cc3C2)NC(c2nccs2)=NC1c1ccc(F)c(F)c1Cl (single isomer, unassigned) [Compound 53b]",
    "measured_result": 11.9
  },
  {
    "compound": "CCOC(=O)C1=C(C2CCc3sc(CCC(=O)O)nc3C2)NC(c2nccs2)=NC1c1ccc(F)c(F)c1Cl (single isomer, unassigned) [Compound 59f]",
    "measured_result": 5.8
  }
]

In: // lookup CC50 for CCOC(=O)C1=C(C2CCc3cn(CCC(=O)O)nc3C2)NC(c2nccs2)=NC1c1ccc(F)c(F)c1Cl (single isomer, unassigned) [Compound 61a]
Out: 4.8

In: // lookup CC50 for CCOC(=O)C1=C(C2CCc3nn(CCC(=O)O)cc3C2)NC(c2nccs2)=NC1c1ccc(F)cc1Br (single isomer, unassigned) [Compound 39c]
Out: 11.9

----------
system: HBV; assay: HBV inhibitory activity in HepG2.2.15 cells (HBV DNA in culture medium by q-PCR); type: cell-based; conditions: HepG2.2.15 cells, 40,000 cells/well, 6 days of compound treatment, HBV DNA in culture medium by q-PCR, highest concentration 10 uM; read-out: EC50
measured_endpoint: EC50
Put your answer as a value accompanied by its unit after it.

[
  {
    "compound": "CCOC(=O)C1=C(C2CCc3nn(CCC(=O)O)cc3C2)NC(c2nccs2)=NC1c1cccc(F)c1Cl (single isomer, unassigned) [Compound 40b]",
    "EC50": "0.48 µM"
  },
  {
    "compound": "COC(=O)C1=C(C2CCc3[nH]ncc3C2)NC(c2nccs2)=NC1c1ccc(F)c(F)c1Cl (single isomer, unassigned) [Compound 65b]",
    "EC50": "2.67 µM"
  }
]

In: HBV / EC50 / CCOC(=O)C1=C(C2CCc3nn(CCC(=O)O)cc3C2)NC(c2nccs2)=NC1c1ccc(F)cc1C (single isomer, unassigned) [Compound 38b] : value?
Out: 0.667 µM

In: HBV / EC50 / COC(=O)C1=C(C2CCc3nc([C@H]4C[C@H](C(=O)O)C4)oc3C2)NC(c2nccs2)=NC1c1ccc(F)c(F)c1Cl (single isomer, unassigned) [Compound 72b] : value?
Out: 0.0215 µM

In: HBV / EC50 / COC(=O)C1=C(C2CCc3[nH]ncc3C2)NC(c2nccs2)=NC1c1ccc(F)c(F)c1Cl (single isomer, unassigned) [Compound 65a] : value?
Out: 0.0563 µM

In: HBV / EC50 / COC(=O)C1=C(C2CCc3nn(CCC(=O)O)cc3C2)NC(c2nccs2)=NC1c1ccc(F)c(F)c1Br (single isomer, unassigned) [Compound 46d] : value?
Out: 0.0136 µM

In: HBV / EC50 / COC(=O)C1=C(C2CCc3nc([C@H]4C[C@H](C(=O)O)C4)sc3C2)NC(c2nccs2)=NC1c1ccc(F)c(F)c1Cl (single isomer, unassigned) [Compound 68c] : value?
Out: 0.00645 µM
